Kindly supply the reported hERG current change (%, negative = inhibition) at 10uM values for the records listed here.
target or system: human ether-à-go-go-related gene (hERG) potassium channel (human, UniProt Q12809);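 note: peak tail current of the secondary pulse compared with the same well before compound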
Sequence (Q12809 whole entry, looked up): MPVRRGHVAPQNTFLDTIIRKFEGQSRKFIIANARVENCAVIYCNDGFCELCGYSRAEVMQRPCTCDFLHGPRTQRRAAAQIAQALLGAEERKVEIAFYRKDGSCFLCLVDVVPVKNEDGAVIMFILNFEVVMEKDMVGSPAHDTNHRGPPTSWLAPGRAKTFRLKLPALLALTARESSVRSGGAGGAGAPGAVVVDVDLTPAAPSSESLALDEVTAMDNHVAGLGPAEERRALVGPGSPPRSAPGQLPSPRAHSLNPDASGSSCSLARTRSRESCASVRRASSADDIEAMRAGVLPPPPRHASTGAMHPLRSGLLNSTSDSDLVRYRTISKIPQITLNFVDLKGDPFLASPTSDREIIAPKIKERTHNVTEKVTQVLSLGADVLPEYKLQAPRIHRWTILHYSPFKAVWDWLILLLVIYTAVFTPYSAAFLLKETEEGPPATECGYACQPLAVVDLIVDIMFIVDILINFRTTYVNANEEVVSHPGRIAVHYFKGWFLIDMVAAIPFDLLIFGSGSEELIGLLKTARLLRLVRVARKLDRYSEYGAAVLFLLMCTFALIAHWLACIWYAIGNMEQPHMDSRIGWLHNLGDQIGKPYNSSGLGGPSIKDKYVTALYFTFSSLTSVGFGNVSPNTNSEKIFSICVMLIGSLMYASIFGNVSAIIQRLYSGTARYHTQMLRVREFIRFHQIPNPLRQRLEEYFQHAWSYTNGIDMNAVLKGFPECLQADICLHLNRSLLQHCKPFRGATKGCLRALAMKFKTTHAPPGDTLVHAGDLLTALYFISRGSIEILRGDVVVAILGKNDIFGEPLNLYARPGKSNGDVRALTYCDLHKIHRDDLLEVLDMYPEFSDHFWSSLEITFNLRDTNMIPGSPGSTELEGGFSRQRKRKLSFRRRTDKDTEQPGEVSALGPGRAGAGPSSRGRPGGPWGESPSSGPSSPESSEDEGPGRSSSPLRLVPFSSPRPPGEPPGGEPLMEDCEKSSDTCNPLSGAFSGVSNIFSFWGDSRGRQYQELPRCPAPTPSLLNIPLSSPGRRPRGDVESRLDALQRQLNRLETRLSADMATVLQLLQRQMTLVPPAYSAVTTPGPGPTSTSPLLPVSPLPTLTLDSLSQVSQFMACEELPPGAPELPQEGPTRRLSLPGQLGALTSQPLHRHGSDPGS
assay: primary screen, population patch clamp on CHO cells stably expressing hERG; higher = less effect of the substance
Screen size: about 310,000 compounds; about 14,000 (4.5%) showed an effect of 50% or more. The effect is printed as a negative number. This is one part of a sample in which strong results are shown more often than they occur.

Working through the 6 compounds below one at a time, give hERG current change (%, negative = inhibition) at 10uM for each.
1. COc1ccc(/C=N/NC(=O)c2cccc(Br)c2)cc1CN1CCOCC1
2. CC(C)CC(=O)N1CCC(N2CCN(c3ccccc3)CC2)CC1
3. COc1ccccc1N1CCN(C2CCN(C(=O)c3cccs3)CC2)CC1
4. O=C(c1cccs1)N1CCN(C2CCN(Cc3ccccc3)CC2)CC1
5. c1ccc(Cn2c3ccccc3c3nnc(SCCN4CCCCC4)nc32)cc1
6. O=C(c1cccs1)N1CCN(CCc2ccccc2)CC1

-- reply
["-82.4%", "-12%", "-38.2%", "-64.3%", "-67.7%", "-48.6%"]

Working through the 6 compounds below one at a time, give hERG current change (%, negative = inhibition) at 10uM for each.
1. CC(C)(C)OC(=O)N1CCC(CC2CC(c3ccccc3)=NO2)(C(=O)NCc2ccccc2)CC1 (centres unmarked)
2. O=C(c1cccs1)N1CCN(Cc2ccccc2)CC1
3. Cc1ccc(S(=O)(=O)N2CCC(C(=O)NNC(=O)c3ccccc3)CC2)cc1
4. COc1ccc(/C=N/NC(=O)c2cccc(Br)c2)cc1Cn1cc(Cl)cn1
5. O=C(COc1ccccc1C(=O)Nc1ccccc1)NCCc1ccccc1
6. CCOc1cc(/C=N/NC(=O)c2ccc(CN3CCOCC3)cc2)ccc1OC

-- reply
-18.3%
-12.2%
18.9%
8.83%
34.4%
-19.1%
